- testedOn: 5-hydroxytryptamine receptor 1A (Homo sapiens)
- Sequence (P08908 whole entry): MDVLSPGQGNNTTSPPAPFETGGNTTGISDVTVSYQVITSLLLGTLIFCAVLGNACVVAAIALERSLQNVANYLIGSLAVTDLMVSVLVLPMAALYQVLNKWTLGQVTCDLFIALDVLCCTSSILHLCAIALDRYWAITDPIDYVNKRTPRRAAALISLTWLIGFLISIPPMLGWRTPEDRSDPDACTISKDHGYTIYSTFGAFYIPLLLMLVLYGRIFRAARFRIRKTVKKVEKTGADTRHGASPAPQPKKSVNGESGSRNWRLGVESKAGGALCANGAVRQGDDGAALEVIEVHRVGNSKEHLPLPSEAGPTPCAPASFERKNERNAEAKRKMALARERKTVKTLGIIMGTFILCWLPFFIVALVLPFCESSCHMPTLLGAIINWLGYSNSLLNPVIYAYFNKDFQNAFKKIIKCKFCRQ
- testDescription: Receptor binding affinity for cloned human 5-hydroxytryptamine 1A receptor in HeLa cells
Ki listing for selected molecules.
Answer format: value, then unit.

[[record]]
structuresmilesstring = "COc1cccc(N2CCN(C(=O)COc3ccc4cccc(N5CCN(C)CC5)c4c3)CC2)c1OC"
result = "13.4 nM"

[[record]]
structuresmilesstring = "CN1CCN(c2cccc3ccc(OCC(=O)N4CCN(c5ccccc5C#N)CC4)cc23)CC1"
result = "12.3 nM"

[[record]]
structuresmilesstring = "Cc1ccccc1CN1CCN(C(=O)COc2ccc3cccc(N4CCN(C)CC4)c3c2)CC1"
result = "22.7 nM"


q: Ki lookup needed for CN1CCN(c2cccc3ccc(OCC(=O)N4CCN(c5cccc6ccccc56)CC4)cc23)CC1 , thanks.
a: 114 nM

q: Please look up its Ki: c1ccc2c(N3CCNCC3)cccc2c1
a: 9.2 nM

q: Query: Ki; subject: CN1CCN(c2cccc3ccc(OCC(=O)N4CCN(c5cccc6c5OCCO6)CC4)cc23)CC1
a: 14.1 nM

q: Please look up its Ki: Cc1cc(C)c(N2CCN(C(=O)COc3ccc4cccc(N5CCN(C)CC5)c4c3)CC2)c(C)c1
a: 117 nM

q: Given the molecule COc1ccc2ccc(N3CCNCC3)cc2c1 , what is its reported Ki?
a: 2.8 nM
